# targetDesc: T1, EsCas13d, nuclease-dead (Eubacterium siraeum, UniProt B0MS50, R295A;H300A;R849A;H854A)
# T1 sequence: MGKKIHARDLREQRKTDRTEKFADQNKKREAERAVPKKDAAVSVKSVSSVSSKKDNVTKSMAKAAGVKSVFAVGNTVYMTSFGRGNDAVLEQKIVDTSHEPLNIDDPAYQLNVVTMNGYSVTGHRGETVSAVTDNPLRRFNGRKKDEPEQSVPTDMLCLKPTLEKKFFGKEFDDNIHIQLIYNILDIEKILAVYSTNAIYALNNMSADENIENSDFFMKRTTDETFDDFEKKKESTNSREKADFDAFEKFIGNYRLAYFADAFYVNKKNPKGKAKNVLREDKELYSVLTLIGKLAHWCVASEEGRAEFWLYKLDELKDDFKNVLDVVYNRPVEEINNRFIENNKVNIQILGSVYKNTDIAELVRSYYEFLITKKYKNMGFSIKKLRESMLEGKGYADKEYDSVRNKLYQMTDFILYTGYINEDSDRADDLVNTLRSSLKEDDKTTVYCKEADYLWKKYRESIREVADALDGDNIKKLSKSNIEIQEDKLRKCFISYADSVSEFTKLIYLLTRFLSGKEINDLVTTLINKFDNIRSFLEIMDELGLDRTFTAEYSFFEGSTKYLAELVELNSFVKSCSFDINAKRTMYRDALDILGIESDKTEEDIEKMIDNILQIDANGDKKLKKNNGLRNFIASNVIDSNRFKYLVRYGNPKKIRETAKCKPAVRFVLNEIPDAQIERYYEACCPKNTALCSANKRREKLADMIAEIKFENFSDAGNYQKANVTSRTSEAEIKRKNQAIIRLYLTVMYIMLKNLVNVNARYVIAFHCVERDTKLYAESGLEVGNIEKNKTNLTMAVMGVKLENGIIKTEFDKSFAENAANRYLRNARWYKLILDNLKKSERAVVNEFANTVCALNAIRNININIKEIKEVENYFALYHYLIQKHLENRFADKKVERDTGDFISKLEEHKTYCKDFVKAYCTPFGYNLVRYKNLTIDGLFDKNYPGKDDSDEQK
# protocolDescription: crRNA (strand 1, pre-loaded); Mg2+; 40 mM Tris-HCl pH 7.5, 150 mM NaCl, 6 mM MgCl2, 1 mM DTT, 0.1% Tween-20, 0.2 mg/ml BSA; 25 C; 10 min per concentration, then washed
# settings: tags: His6-TwinStrep-SUMO cleaved; N-terminal SNAP kept (SNAP-Surface 488); label: 3' end held by stalled T7 RNA polymerase
parameter: Kd (nM)
One number for each entry, in nM.

target 1 MT 5'PFS GUG 3'PFS AAU (mixed) RNA 1: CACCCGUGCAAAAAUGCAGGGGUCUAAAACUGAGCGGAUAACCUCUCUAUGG RNA 2: GGGAAUGGAUCCACAUCUACGAAUUCGUGCCAUAGAGAGGUUAUCCGCUCAAAUAGAUCGGAAGAGCACACGU : 22.1

Next binder, please.
Qu. Give its Kd value. Item: target 1 insU 3' of 13,insU 3' of 7 (mixed) RNA 1: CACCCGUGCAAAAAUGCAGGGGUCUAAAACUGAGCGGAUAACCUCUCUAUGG RNA 2: GGGAAUGGAUCCACAUCUACGAAUUCGUACCAUAGAGAGUGUUAUCUCGCUCACCGAGAUCGGAAGAGCACACGU
Ans. 13.7
